- Tested on: SNB-75 CNS
- assay info: NCI-60 one-dose screen, 48 h (100 = growth as untreated, 0 = no growth, -100 = all killed)
- settings: 10 µM
About 83,000 compounds went through this panel and 20% of them were active in at least one assay; those are over-represented in the sample as a whole.
One threshold, 90%, splits the recorded growth values: lower ones are satisfied, equal or higher ones are not satisfied.

See these solved cases before continuing.
compound	qualitative label
Oc1ccccc1-c1nnco1	satisfied
CNC(=S)NC(C)(C)C	not satisfied
COC(=O)c1cccc(Br)c1	not satisfied
CCOC(=O)C1=C(Nc2ccc(Br)cc2)C(=O)N(CC)C1	not satisfied
CC1CCC2C(C)(C)C3CC12CC1OC13C (centres undefined)	not satisfied
COC(=O)c1ccccc1N(C)C	not satisfied

Does CC(=O)OCCC(C)CCC=C(C)C (centres undefined) have growth strictly under 90%?
not satisfied

Would you mind doing O=S(=O)(O)CC(O)CN1CCN(CCO)CC1 (centres undefined) as well?
not satisfied

Next compound: Nc1ccc(N=Nc2ccc(O)cc2)c(N)n1
satisfied
